# System: MCF7 cells
# assay_name: Growth inhibition assay (NCI method, sulforhodamine B), MCF7
# Assay type: cell-based, human
# reported_conditions: human breast cancer cells, 48 hr, 10% serum; read-out: GI50 (μM) MCF7
measured_quantity: GI50 (µM)
Give bare numbers, in µM.

CC(C)(C)[Si](C)(C)Oc1ccc2c(c1)OC1c3ccc(O)cc3OCC21O (single isomer, unassigned; (-)) [4 (−), (−) 9-(t-Butyldimethylsilyloxy)-glycinol]: 7.1
CC(C)(C)[Si](C)(C)Oc1ccc2c(c1)OC1c3ccc(O)cc3OCC21O (single isomer, unassigned; (+)) [4 (+), (+) 9-(t-Butyldimethylsilyloxy)-glycinol]: 14

Could you now consider this next molecule?
I am curious: what GI50 value has been reported for CC(C)(C)[Si](C)(C)Oc1ccc2c(c1)OC1c3ccc(O)cc3OCC21O (racemic) [4 (+/−), (+) 9-(t-Butyldimethylsilyloxy)-glycinol] ?
4.1

* * *

# test_system: hrER-α (alpha estrogen receptor) (Homo sapiens, UniProt P03372)
# Sequence (P03372 whole entry): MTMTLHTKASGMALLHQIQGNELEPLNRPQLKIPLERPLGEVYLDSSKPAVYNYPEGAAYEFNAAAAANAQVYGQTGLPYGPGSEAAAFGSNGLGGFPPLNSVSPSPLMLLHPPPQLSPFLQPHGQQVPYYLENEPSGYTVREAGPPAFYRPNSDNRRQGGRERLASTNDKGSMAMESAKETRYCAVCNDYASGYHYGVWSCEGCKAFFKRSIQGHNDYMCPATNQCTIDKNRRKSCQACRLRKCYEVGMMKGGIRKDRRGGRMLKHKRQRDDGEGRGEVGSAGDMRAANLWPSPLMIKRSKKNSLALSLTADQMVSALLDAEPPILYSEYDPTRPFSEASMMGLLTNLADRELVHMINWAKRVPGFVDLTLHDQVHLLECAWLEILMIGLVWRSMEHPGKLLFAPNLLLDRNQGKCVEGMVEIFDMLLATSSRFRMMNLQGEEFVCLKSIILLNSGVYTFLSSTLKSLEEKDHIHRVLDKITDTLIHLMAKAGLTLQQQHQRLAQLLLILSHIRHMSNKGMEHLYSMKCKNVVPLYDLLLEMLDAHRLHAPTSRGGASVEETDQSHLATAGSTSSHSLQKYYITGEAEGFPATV
# assay_name: ER-α competition binding assay (fluorescence anisotropy, ES2 displacement)
# reported_conditions: ERα/ES2 complex, 2 h room temperature, FIG. 9; read-out: IC50 for 50% inhibition of a standard's binding with the alpha estrogen receptor (ER-α)
measured_quantity: pIC50
Give bare numbers, as −log10 of the molar value.

Here's what some known entries look like.
CC1(C)C=Cc2c(ccc3c2OC[C@@]2(O)c4ccc(O)cc4O[C@@H]32)O1 [7 (−), Glyceollin I (Natural Glyceollin I)]: 5.85
CC1(C)C=Cc2c(ccc3c2OC[C@@]2(O)c4ccc(O)cc4O[C@@H]32)O1 [isolated GLY I, reference compound]: 5.96
CC1(C)C=Cc2c(ccc3c2OCC2(O)c4ccc(O)cc4OC32)O1 (racemic) [racemic (±)-GLY I, (+) Glyceollin I (Racemic Glyceollin I)]: 5.85

Switching to the query record.
Request the reported pIC50 associated with CC1(C)C=Cc2c(ccc3c2OC[C@]2(O)c4ccc(O)cc4O[C@H]32)O1 [7 (+)]
5.85

* * *

# assay_name: ABTS antioxidant assay
# reported_conditions: concentration causing 50% reduction in ABTS absorbance; 2 min, room temperature
Labelling field: enter rule met if recorded IC50 is less than 5 µM. Enter rule not met if it equals or exceeds that cut-off.

CC(C)(C)[Si](C)(C)Oc1ccc(C2(O)COc3cc(OCc4ccccc4)ccc3C2O)c(OCc2ccccc2)c1 (racemic) [2 (+/−)]: rule not met

Determine whether this compound shows IC50 lower than 5 µM (ties excluded): Oc1ccc2c(c1)OC[C@@]1(O)c3ccc(O)cc3O[C@@H]21 (racemic) [Glycinol (+/−), (+) Glycinol]
rule met

* * *

Provide the recorded IC50 for the entries that follow.
# assay_name: ABTS antioxidant assay
# reported_conditions: concentration causing 50% reduction in ABTS absorbance; 2 min, room temperature
One number for each entry, in µM.

Recorded IC50, per entry:
CC(C)(C)[Si](C)(C)Oc1ccc2c(c1)OC1c3ccc(O)cc3OCC21O (single isomer, unassigned; (-)) [4 (−), (−) 9-(t-Butyldimethylsilyloxy)-glycinol]: 5
CC(C)(C)[Si](C)(C)Oc1ccc2c(c1)OC1c3ccc(O)cc3OCC21O (single isomer, unassigned; (+)) [4 (+), (+) 9-(t-Butyldimethylsilyloxy)-glycinol]: 5
CC1(C)C=Cc2c(ccc3c2OC[C@@]2(O)c4ccc(O)cc4O[C@@H]32)O1 [7 (−), Glyceollin I (Natural Glyceollin I)]: 5.3
CC(C)(C)[Si](C)(C)Oc1ccc(C2(O)COc3cc(O)ccc3C2O)c(O)c1 (racemic) [3 (+/−)]: 4.6
CC1(C)C=Cc2c(ccc3c2OC[C@]2(O)c4ccc(O)cc4O[C@H]32)O1 [7 (+)]: 5.2
O=c1c(-c2ccc(O)cc2)coc2cc(O)cc(O)c12 [Genistein, reference compound]: 3.3
CC(C)(C)[Si](C)(C)Oc1ccc2c(c1)OC1c3ccc(O)cc3OCC21O (racemic) [4 (+/−), (+) 9-(t-Butyldimethylsilyloxy)-glycinol]: 4.6

I'd like to know its IC50. The compound in question is O=c1c(-c2ccc(O)cc2)coc2cc(O)ccc12 [Daidzein, reference compound]
3.3
